# Test system: Aβ42
# assay.remarks: γ-secretase-modulating activity, Method 2: Aβ42 Alphalisa in supernatant of SKNBE2 cells carrying APP 695-wild type (Table 3b)
# Format: cell-based
# settings: overnight
pIC50: −log10 of the molar value.
# cutoff 6 applies to pIC50; >= gives true (1), < gives false (0)

Here's what some known entries look like.
COc1cc(-c2nc(Nc3cc(C(F)(F)F)cc(Cl)c3F)n(C)n2)ccc1-n1cnc(C)c1 : true (1)
COc1cc(-c2nc3n(n2)CCC[C@@H]3c2cc(C(F)(F)F)ccc2C)ccc1-n1cnc(C)c1 : true (1)
COc1cc(-c2nc3c(-c4cccc(C(F)(F)F)c4)nccn3n2)ccc1-n1cnc(C)c1 : false (0)
COc1nc(-c2nc(Nc3cccc(F)c3C(F)(F)F)n(C)n2)ccc1-n1cnc(C)c1 : true (1)
COc1cc(-c2nc(Oc3ccccc3Cl)n(C)n2)ccc1-n1cnc(C)n1 : false (0)
COc1cc(-c2nc(-c3cc(C(F)(F)F)ccc3C)n(C)n2)ccc1-n1cnc(C)c1 : true (1)

Shift focus to the following entry.
stdin: Textbook exercise: given the entry COc1cccc(-c2nc(-c3ccc(-n4cnc(C)c4)c(OC)c3)n(C)n2)c1 , state whether its pIC50 is greater than or equal to 6.
stdout: false (0)

----------
# System: Aβ42
# assay.remarks: γ-secretase-modulating activity, Method 2: Aβ42 Alphalisa in supernatant of SKNBE2 cells carrying APP 695-wild type (Table 3b)
# Format: cell-based
# settings: overnight
observable: pIC50
In textbook form, pIC50 equals minus log to base ten of the concentration in mol/L.

COc1cc(-c2nc(Nc3cccc(Cl)c3C(F)(F)F)n(C)n2)ccc1-n1cnc(C)c1 : 7.39
COc1cc(-c2nc(Nc3cc(C(=O)N(C)C)ccc3F)n(C)n2)ccc1-n1cnc(C)c1 : 5.77

stdin: So what pIC50 did COc1cc(-c2nc(Oc3cccc(C(F)(F)F)c3)n(C)n2)ccc1-n1cnc(C)c1 get with Aβ42?
stdout: 6.57

stdin: Check COc1cc(-c2nc(Nc3c(F)cccc3Cl)n(C)n2)ccc1-n1cnc(C)c1 too.
stdout: 7.07

stdin: What about this compound? COc1nc(-c2nc(Nc3ccc(F)c(C(F)(F)F)c3)n(C)n2)ccc1-n1cnc(C)c1
stdout: 7.38

stdin: Same thing, different compound: COc1ccc(C(F)(F)F)cc1Nc1nc(-c2ccc(-n3cnc(C)c3)c(OC)n2)nn1C
stdout: 7.82

stdin: What would you report for COc1cc(-c2nc(CNc3cccc(C(F)(F)F)c3)n(C)n2)ccc1-n1cnc(C)c1 ?
stdout: 6.73

stdin: Moving on to the next compound: COc1cc(-c2nc(C3CCCCC3)n(C)n2)ccc1-n1cnc(C)c1
stdout: 6.62

stdin: Consider next the compound COc1cc(-c2nc(Nc3ccccc3C(F)(F)F)n(C(C)C)n2)ccc1-n1cnc(C)c1 in the same way.
stdout: 7.34

----------
observable: melting point (°C)
Number only, in °C; omit the unit.

Here's what some known entries look like.
COc1cc(-c2nc3c(-c4ccccc4C(F)(F)F)nccn3n2)ccc1-n1cnc(C)c1 [Compound 294] : 176.9
COc1cc(-c2nc(Nc3cc(C(C)(C)O)ccc3F)n(C)n2)ccc1-n1cnc(C)c1 [Compound 175] : 193.8
COc1cc(-c2nc(-c3ccccc3Cl)n(C)n2)ccc1-n1cnc(C)c1 [Compound 2] : 149.3

We next turn to a different molecule, shown below.
stdin: For COc1cc(-c2nc3nc(-c4ccccc4C(F)(F)F)ccn3n2)ccc1-n1cnc(C)c1 [Compound 291] , what is its reported melting point?
stdout: 193.4

----------
# System: Aβ42
# assay.remarks: γ-secretase-modulating activity, Method 2: Aβ42 Alphalisa in supernatant of SKNBE2 cells carrying APP 695-wild type (Table 3b)
# Assay type: cell-based
# settings: overnight
# Description: Screening was carried out using SKNBE2 cells carrying the APP 695-wild type, grown in Dulbecco's Modified Eagle's Medium/Nutrient mixture F-12 (DMEM/NUT-mix F-12) (HAM) provided by Invitrogen (cat no. 10371-029) containing 5% Serum/Fe supplemented with 1% non-essential amino acids, 1-glutamine 2 mM, Hepes 15 mM, penicillin 50 U/ml (units/ml) en streptomycin 50 μg/ml. […] Aβtotal and Aβ42 concentrations were quantified in the cell supernatant using the Aphalisa technology (Perkin Elmer). […]
observable: pIC50
The meaning of pIC50 here: minus log10 of the concentration in molar units.

Some entries whose results are on file:
COc1cc(-c2nc(Nc3cccc(C#N)c3F)n(C)n2)ccc1-n1cnc(C)c1 : 6.53
COc1cc(-c2nc(-c3cc(Cl)ccc3C)nn2C)ccc1-n1cnc(C)c1 : 5.51

stdin: What value of measured pIC50 is listed for COc1cc(-c2nc(/C=C/c3ccc(F)cc3)nn2C)ccc1-n1cnc(C)c1 ?
stdout: 5.53

stdin: Record: COc1cc(-c2nc(Nc3cccc(C(F)(F)F)c3)n(CC(F)(F)F)n2)ccc1-n1cnc(C)c1
stdout: 7.42

stdin: Quick one: COc1nc(-c2nc3n(n2)CCC[C@H]3c2ccccc2C(F)(F)F)ccc1-n1cnc(C)c1
stdout: 7.54

----------
# System: Aβ42
# assay.remarks: γ-secretase-modulating activity, Method 2: Aβ42 Alphalisa in supernatant of SKNBE2 cells carrying APP 695-wild type (Table 3b)
# Assay type: cell-based
# settings: overnight
observable: pIC50
Keep it numeric: pIC50 is minus log10 of the concentration in mol/L.

For orientation, consider the following solved cases.
COc1cc(Cl)ccc1Nc1nc(-c2ccc(-n3cnc(C)c3)c(OC)c2)nn1C : 6.75
COc1cc(-c2nc(-c3ccc(F)cc3)nn2C)ccc1-n1cnc(C)c1 : 5.24
Cc1cn(-c2ccc(-c3nc(Nc4ccc(F)cc4C(F)(F)F)n(C)n3)cc2)cn1 : 5.77
COc1cc(-c2nc(Nc3ccc(C)cc3F)n(C)n2)ccc1-n1cnc(C)c1 : 7.22
COc1cc(-c2nc(Nc3cc(OC(C)C)ccc3F)n(C)n2)ccc1-n1cnc(C)c1 : 8.10
COc1cc(-c2nc(Nc3cc(Br)ccc3F)n(C)n2)ccc1-n1cnc(C)c1 : 7.40
COc1cc(-c2nc3n(n2)CCCC32CCCCC2)ccc1-n1cnc(C)c1 : 6.77
COc1cc(-c2nc(Nc3ccccc3F)n(C)n2)ccc1-n1cnc(C)c1 : 6.88

stdin: I would be grateful if you could share the reported pIC50 for COc1cc(-c2nc(Cc3ccc(F)cc3)n(C)n2)ccc1-n1cnc(C)c1 .
stdout: 6.32

stdin: Next up: COc1nc(-c2nc3n(n2)CCCC3c2cc(C(F)(F)F)ccc2C)ccc1-n1cnc(C)c1 (centres unmarked)
stdout: 7.82

stdin: Let us now turn to COc1cc(-c2nc(Nc3cc(C(F)(F)F)ccc3C(F)(F)F)n(C)n2)ccc1-n1cnc(C)c1
stdout: 8.05

stdin: And the next one, COc1cc(-c2nc(N3CCc4ccccc4C3)n(C(C)C)n2)ccc1-n1cnc(C)c1 ?
stdout: 6.22

stdin: Param item: COc1cc(-c2nc(Nc3cc(F)c(F)cc3Cl)n(C)n2)ccc1-n1cnc(C)c1
stdout: 6.91

----------
# reported pIC50; entries follow
# Tested on: Aβ42
# assay.remarks: γ-secretase-modulating activity, Method 2: Aβ42 Alphalisa in supernatant of SKNBE2 cells carrying APP 695-wild type (Table 3b)
# Assay type: cell-based
# settings: overnight
Quick note: pIC50 means taking -log10 of the concentration in moles per liter.

Examples with their reported pIC50 follow.
COc1cc(-c2nc(-c3ccccc3Cl)nn2C)ccc1-n1cnc(C)c1 : 5.30
COc1cc(-c2nc(Nc3cc(C(F)(F)F)c(F)cc3F)n(C)n2)ccc1-n1cnc(C)c1 : 7.21
COc1cc(-c2nc(Nc3ccc(F)cc3Cl)n(C)n2)ccc1-n1cnc(C)c1 : 6.93
COc1nc(-c2nc(Nc3ccccc3F)n(C)n2)ccc1-n1cnc(C)c1 : 6.83
COc1cc(-c2nc3n(n2)CCOC3c2cc(OC(F)(F)F)ccc2F)ccc1-n1cnc(C)c1 (centres unmarked) [Compound 128] : 7.55

stdin: # lookup: pIC50 of COc1nc(-c2nc(N(C)c3cc(C(F)(F)F)ccc3F)n(C)n2)ccc1-n1cnc(C)c1
stdout: 6.58

----------
# Tested on: Aβ42
# assay.remarks: γ-secretase-modulating activity, Method 2: Aβ42 Alphalisa in supernatant of SKNBE2 cells carrying APP 695-wild type (Table 3b)
# Format: cell-based
# settings: overnight
observable: log10 of IC50 (log10 of the value in nM)
Quick note: numbers are log10 of IC50, with nM as the unit.

COc1cc(-c2nc(Cc3ccc(F)cc3C(F)(F)F)n(C)n2)ccc1-n1cnc(C)c1 [Compound 46] : 2.14

stdin: # get_value(readout='log10 of IC50', item= Cc1cn(-c2ccc(-c3nc(Nc4cc(C(F)(F)F)ccc4F)n(C)n3)cc2C#N)cn1 [Compound 322] )
stdout: 1.56

stdin: Note, next up: COc1cc(-c2nc(Nc3cc(C(F)(F)F)cc(OC)c3F)n(C)n2)ccc1-n1cnc(C)c1 [Compound 203]
stdout: 1.00

stdin: Next record, please: COc1cc(-c2nc(Nc3cc(C(F)(F)F)c(Cl)cc3F)n(C)n2)ccc1-n1cnc(C)c1 [Compound 212]
stdout: 1.23

stdin: Try this compound next: COc1cc(-c2nc3n(n2)CCC[C@@H]3c2ccccc2C(F)(F)F)ccc1-n1cnc(C)c1 [Compound 260]
stdout: 2.66

stdin: Try this compound too: COc1cc(-c2nc(Nc3cc(OC4CCOC4)ccc3F)n(C)n2)ccc1-n1cnc(C)c1 (racemic) [Compound 358]
stdout: 1.79

stdin: Field entry: COCCn1nc(-c2ccc(-n3cnc(C)c3)c(OC)c2)nc1-c1ccccc1Cl [Compound 87]
stdout: 2.88

stdin: Moving on to the next compound: COc1cc(-c2nc(Nc3ccc(C#N)cc3C(F)(F)F)n(C)n2)ccc1-n1cnc(C)c1 [Compound 230]
stdout: 2.48
